Species: Rattus norvegicus
EXPERIMENTAL PROTOCOL: Open TG-GATES - Regimen: Single
Assay type: toxicity, organism-based, Sprague-Dawley
Set-up: regimen Single, gender Male, age 6 weeks
ASSAY CONTEXT: in vivo, po, 1000 mg/kg, 3 h, tissue Blood, route gavage, dose level High
Please respond with reported MCH for every item in the list.
Answers are plain numbers, in pg.

See these solved cases before continuing.
SMILES CODE	UNIT OF MEASUREMENT	MCH
Cc1nnc2n1-c1ccc(Cl)cc1C(c1ccccc1Cl)=NC2	pg	20.9
COC(=O)C1=C(C)NC(C)=C(C(=O)OC)C1c1ccccc1[N+](=O)[O-]	pg	20.8
CNC(=C[N+](=O)[O-])NCCSCc1ccc(CN(C)C)o1	pg	21.7
O=C(OC[C@H]1O[C@@H](OC(=O)c2cc(O)c(O)c(OC(=O)c3cc(O)c(O)c(O)c3)c2)[C@H](OC(=O)c2cc(O)c(O)c(OC(=O)c3cc(O)c(O)c(O)c3)c2)[C@@H](OC(=O)c2cc(O)c(O)c(OC(=O)c3cc(O)c(O)c(O)c3)c2)[C@@H]1OC(=O)c1cc(O)c(O)c(OC(=O)c2cc(O)c(O)c(O)c2)c1)c1cc(O)c(O)c(OC(=O)c2cc(O)c(O)c(O)c2)c1	pg	21.7

Consider the additional molecule presented here.
// lookup MCH for CN/C(=N/CCSCc1nc[nH]c1C)NC#N
21.2
